B1: Formin-binding protein 4, residues 200 to 261; numbered along this chain, Q8N3X1 (parent)
chain: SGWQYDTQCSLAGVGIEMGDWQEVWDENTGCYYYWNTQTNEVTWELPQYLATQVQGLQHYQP

variants of: B1; test: abundance fitness (aPCA) (normalised: wild type 0, dead -1); higher = more abundant; growth selection in yeast, the domain comes from the species named; conditions: Homo sapiens
Measured Endpoint: abundance fitness

// worked examples, abundance fitness included
SGWQYDTNCSLAGVGIEMGDWQEVWDENTGCYYYWNTQTNEVTWELPQYLATQVQGLQHYQP [Q8N]	-0.02
SGWQYDTQCSLAGVGIEMGDWQEPWDENTGCYYYWNTQTNEVTWELPQYLATQVQGLQHYQP [V24P]	-1.05
SGWQYDTQCSLAGVGIEMGDWLEVWDENTGCYYYWNTQTNEVTWELPQYLATQVQGLQHYQP [Q22L]	-0.315
SGWQYDTQCSLAGVGIEMGDWQEVWDENTGCYYYWNTQTREVTWELPQYLATQVQGLQHYQP [N40R]	-0.157
SGWQYDTQCSLAGVGIEMGDWQEVWDENTGCYYYWNTRTNEVTWELPQYLATQVQGLQHYQP [Q38R]	0.042
SGWQYDTQCSLAWVGIEMGDWQEVWDENTGCYYYWNTQTNEVTWELPQYLATQVQGLQHYQP [G13W]	-0.666

Please give abundance fitness for each item listed below.
1. SGWQYDTQCSLAGVGIEMGDWQEVWDENTGCYYYWNTQTNEVTWEGPQYLATQVQGLQHYQP [L46G]
2. SGWTYDTQCSLAGVGIEMGDWQEVWDENTGCYYYWNTQTNEVTWELPQYLATQVQGLQHYQP [Q4T]
3. SGWQYDTQCSLAGVGIEMGFWQEVWDENTGCYYYWNTQTNEVTWELPQYLATQVQGLQHYQP [D20F]

Key:
1: -0.787; 2: 0.288; 3: 0.15

# credit: the Human Domainome abundance scans (Beltran et al. 2025)
